target: CDC7 kinase (Homo sapiens)
Sequence (O00311 whole entry): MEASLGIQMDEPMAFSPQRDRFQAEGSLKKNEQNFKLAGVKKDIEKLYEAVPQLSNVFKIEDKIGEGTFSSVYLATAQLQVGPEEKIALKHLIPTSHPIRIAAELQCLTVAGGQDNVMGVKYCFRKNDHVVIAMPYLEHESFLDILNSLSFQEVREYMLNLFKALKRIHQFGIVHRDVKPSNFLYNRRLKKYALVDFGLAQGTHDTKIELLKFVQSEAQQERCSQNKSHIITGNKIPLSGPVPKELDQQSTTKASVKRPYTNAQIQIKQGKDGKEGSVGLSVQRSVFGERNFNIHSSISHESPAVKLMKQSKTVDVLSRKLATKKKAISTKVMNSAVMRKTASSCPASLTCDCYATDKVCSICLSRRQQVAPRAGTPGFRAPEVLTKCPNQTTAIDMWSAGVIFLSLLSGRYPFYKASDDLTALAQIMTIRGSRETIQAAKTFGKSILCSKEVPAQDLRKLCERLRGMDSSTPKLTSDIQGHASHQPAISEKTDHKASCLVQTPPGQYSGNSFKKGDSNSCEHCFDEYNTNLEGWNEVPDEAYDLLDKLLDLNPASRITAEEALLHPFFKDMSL
Sequence (Q9UBU7 whole entry partner): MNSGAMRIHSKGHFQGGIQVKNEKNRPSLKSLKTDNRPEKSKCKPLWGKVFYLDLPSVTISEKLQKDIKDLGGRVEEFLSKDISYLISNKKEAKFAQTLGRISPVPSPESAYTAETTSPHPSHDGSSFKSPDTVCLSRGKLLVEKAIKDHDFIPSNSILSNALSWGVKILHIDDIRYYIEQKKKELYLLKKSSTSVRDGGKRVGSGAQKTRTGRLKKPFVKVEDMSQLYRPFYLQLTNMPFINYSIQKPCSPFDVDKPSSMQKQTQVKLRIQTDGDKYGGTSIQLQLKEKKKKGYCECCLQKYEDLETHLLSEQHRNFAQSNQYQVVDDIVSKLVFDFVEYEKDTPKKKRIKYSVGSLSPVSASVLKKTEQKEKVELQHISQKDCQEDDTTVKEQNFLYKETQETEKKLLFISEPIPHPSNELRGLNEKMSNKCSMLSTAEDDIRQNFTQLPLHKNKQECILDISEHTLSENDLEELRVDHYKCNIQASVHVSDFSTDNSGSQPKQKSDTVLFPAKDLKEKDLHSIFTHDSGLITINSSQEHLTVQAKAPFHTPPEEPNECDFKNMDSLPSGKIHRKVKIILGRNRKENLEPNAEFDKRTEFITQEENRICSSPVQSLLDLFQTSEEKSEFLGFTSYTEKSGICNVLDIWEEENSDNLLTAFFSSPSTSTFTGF
test_readout: IC50

`Cc1n[nH]cc1-c1cc2nc([C@@H]3CC4CCN3CC4)[nH]c(=O)c2s1` has a reported IC50 of < 300 pM

These entries and their values trace back to paper PMC6531005.
